Known viability at 28.5 h, 10 µM of a selection of molecules
assayText: in vitro
experimentalParameters: human, hela cells, % viability
Please state the number and follow it with the unit.

Example results:
{"molecule": "O=C(Cn1ccnc1)Nc1ccccc1Oc1ccc(F)cc1", "viability at 28.5 h, 10 µM": "90.1%"}
{"molecule": "Cn1c(SCC(=O)c2ccccc2)nc2ccccc2c1=O", "viability at 28.5 h, 10 µM": "87.6%"}
{"molecule": "CN(C)C(=O)c1ccc(Cn2nc(NC(=O)OCc3ccccc3)c3ccccc32)cc1", "viability at 28.5 h, 10 µM": "89.6%"}
{"molecule": "CCn1c(SCC(=O)NC2CCCCC2C)nnc1-c1cc2cccc(OC)c2o1 (centres unmarked)", "viability at 28.5 h, 10 µM": "89.5%"}

viability at 28.5 h, 10 µM for COc1nccnc1N1CCN(Cc2ccc(Cl)c(Cl)c2)CC1 is 92.1%

The value of viability at 28.5 h, 10 µM measured for the molecule Cc1cc(S(=O)(=O)Nc2ccc(C(C)(C)C)cc2)sc1C(=O)O turned out to be 88.1%

Record COc1ccc(-c2cc(C(=O)Nc3ccccn3)cnc2-c2ccccc2)cn1 , field viability at 28.5 h, 10 µM: 89.3%

Memo: Cc1ccc(C2C(C(=O)c3cccs3)=C(O)C(=O)N2CCN2CCOCC2)o1 (centres unmarked) , reported viability at 28.5 h, 10 µM: 91.1%

Origin of measurements: paper PMC12040169
